Values were extracted from the kinase profiling compilation of Christmann-Franck et al. (2016).

Target: LYN (human) (UniProt P07948)
Sequence (P07948 whole entry, looked up): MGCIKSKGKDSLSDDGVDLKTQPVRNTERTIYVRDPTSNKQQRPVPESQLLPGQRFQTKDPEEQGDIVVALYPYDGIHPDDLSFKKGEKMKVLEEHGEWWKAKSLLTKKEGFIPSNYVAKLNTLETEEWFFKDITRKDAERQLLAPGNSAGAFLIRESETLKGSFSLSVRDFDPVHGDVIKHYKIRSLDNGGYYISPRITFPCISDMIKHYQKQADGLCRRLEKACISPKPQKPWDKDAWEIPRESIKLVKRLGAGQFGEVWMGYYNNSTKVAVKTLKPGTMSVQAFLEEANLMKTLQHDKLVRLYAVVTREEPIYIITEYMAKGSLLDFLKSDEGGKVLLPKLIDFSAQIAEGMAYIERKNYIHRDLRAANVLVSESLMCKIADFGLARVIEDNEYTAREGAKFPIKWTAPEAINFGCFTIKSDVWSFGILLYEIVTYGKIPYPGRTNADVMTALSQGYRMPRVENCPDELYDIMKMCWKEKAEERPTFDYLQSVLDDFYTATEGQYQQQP
Assay: KINOMEscan competition binding
Details: compound 10.0 µM
Field: kinase still bound, per cent of control. Provide a value for each of the molecules that follow.
Numbers only, in %.

Examples with answers:
>>> reported_value("CCN(CC)CCCCNc1ncc2c(n1)N(C)C(=O)N(c1c(Cl)c(OC)cc(OC)c1Cl)C2")
34
>>> reported_value("N#CCNC(=O)c1ccc(-c2ccnc(Nc3ccc(N4CCOCC4)cc3)n2)cc1")
94
>>> reported_value("NC(=O)Nc1cc(-c2cccc(F)c2)sc1C(=O)N[C@@H]1CCCNC1")
0.65
>>> reported_value("C=CC(=O)Nc1cc(-n2c(=O)ccc3cnc4ccc(-c5cn[nH]c5)cc4c32)ccc1C")
100
>>> reported_value("CNC(=O)c1cc(Oc2ccc(NC(=O)Nc3ccc(Cl)c(C(F)(F)F)c3)cc2)ccn1")
16

Batch of 4 molecules: report kinase still bound, per cent of control for each.
1. COc1ccc(N(C(=O)Oc2c(C)cccc2C)c2ccnc(Nc3ccc(N4CCN(C)CC4)cc3)n2)c(OC)c1
2. C=CC(=O)Nc1ccc(CN(C(=O)Nc2c(Cl)c(OC)cc(OC)c2Cl)c2cc(Nc3ccc(N4CCN(C)CC4)cc3)ncn2)cc1
3. O=C1NC(=O)/C(=C/c2ccc3nccc(-c4ccncc4)c3c2)S1
4. CCN(CC)CCCCNc1ncc2cc(-c3cc(OC)cc(OC)c3)c(NC(=O)NC(C)(C)C)nc2n1

Result:
0
5
92
100

---

Target: MAPK3 (human)
Assay: KINOMEscan competition binding
Conditions: compound 10.0 µM
Exercise: state measured kinase still bound, per cent of control for each of the compounds provided.
Answer with the figure and its unit, nothing else.

// below: answered compounds
>>> reported_value("COCC(=O)NC/C=C/c1ccc2ncnc(Nc3ccc(Oc4ccc(C)nc4)c(C)c3)c2c1")
"95%"
>>> reported_value("COc1cc2ncn(-c3cc(OCc4ccccc4C(F)(F)F)c(C(N)=O)s3)c2cc1OC")
"100%"

// moving on: another record for kinase still bound, per cent of control
Q: Fill in the blank: the reported kinase still bound, per cent of control of "O=C(Nc1cccc(Nc2ncc(Br)c(NCCc3cnc[nH]3)n2)c1)N1CCCC1" is ____.
Result: 76%

---

Answer each item with its documented kinase still bound, per cent of control.
System: CPK1 (P.falciparum)
Assay: KINOMEscan competition binding
Conditions: compound 10.0 µM
Be sure to follow the number with its unit.

>>> reported_value("CCN1CCN(C(=O)Cc2ccc(Nc3ncc(F)c(Nc4ccc(C(=O)Nc5ccccc5Cl)cc4)n3)cc2)CC1")
"29%"

Required: kinase still bound, per cent of control, one value per compound below.
1. COc1cc(C(=O)N2CCC(N3CCN(C)CC3)CC2)ccc1Nc1ncc2c(n1)N(C)c1ccccc1C(=O)N2C
2. COc1ccc(N(C(=O)Oc2c(C)cccc2C)c2ccnc(Nc3ccc(N4CCN(C)CC4)cc3)n2)c(OC)c1
3. CNC(=O)c1cc(Oc2ccc(NC(=O)Nc3ccc(Cl)c(C(F)(F)F)c3)cc2)ccn1
4. NC(=O)Nc1cc(-c2cccc(F)c2)sc1C(=O)N[C@@H]1CCCNC1
5. COc1cc2ncnc(-n3nc(-c4ccccn4)nc3N)c2cc1OC

Result:
1: 100%; 2: 5%; 3: 0.95%; 4: 0.1%; 5: 1.4%

Provide the reported kinase still bound, per cent of control of each entry below, same order.
1. C=CC(=O)Nc1cc(-n2c(=O)ccc3cnc4ccc(-c5cn[nH]c5)cc4c32)ccc1C
2. O=c1cc(N2CCOCC2)oc2c(-c3cccc4c3sc3ccccc34)cccc12
3. COc1cc2ncn(-c3cc(OCc4ccccc4C(F)(F)F)c(C(N)=O)s3)c2cc1OC
4. N#CCNC(=O)c1ccc(-c2ccnc(Nc3ccc(N4CCOCC4)cc3)n2)cc1

Result:
1. 11%
2. 98%
3. 75%
4. 100%
